Reported CC50 at 24 h is given for each of the following compounds.
Experiment: in vitro
Format: cell-based
Settings: mouse, LC50
Procedure: Cell proliferation and viability in the presence of the analogs was tested in the macrophage cell line RAW 264.7 using a 3-(4,5-dimethylthiazol-2-yl)-2,5-diphenyl-2H-tetrazolium bromide (MTT) assay. Cells were seeded at 3×10^4 cells/well in 96 well plates in DMEM (10% FBS, 1% pen/strep). […] Cell viability was determined by measuring absorbance at 560 nm of drug treated cells normalized to DMSO vehicle controls. The absorbance at 670 nm was used as a background correction. […]
Just the number in µM, nothing appended.

Field: example entries. Status: answers known.
compound	CC50 at 24 h, µM
Fc1cccc(CN2CCC(Nc3ccc(-n4nc(C(F)(F)F)cc4C4CCCCC4)cc3)CC2)c1	43.7
FC(F)(F)c1cc(C2CCCCC2)n(-c2ccc(N3CCC(NCc4ccccc4)C3)cc2)n1 (stereo not drawn)	35
FC(F)(F)c1cc(C2CCCCC2)n(-c2ccc(OC3CCN(Cc4ccccc4)CC3)cc2)n1	90.2
NC1CCN(c2ccc(-n3nc(C(F)(F)F)cc3C3CCCCC3)cc2)CC1	18.8
NCC(=O)Nc1ccc(-n2nc(C(F)(F)F)cc2C2CCCCC2)cc1	31.8

Exam item: Kindly indicate its recorded CC50 at 24 h. Item: FC(F)(F)c1cc(C2CCCCC2)n(-c2ccc(OC3CCNCC3)cc2)n1
Marked response: 17.2

Exam item: Kindly indicate its recorded CC50 at 24 h. Item: N#Cc1ccc(CN2CCC(Nc3ccc(-n4nc(C(F)(F)F)cc4C4CCCCC4)cc3)CC2)cc1
Marked response: 32

Exam item: Kindly indicate its recorded CC50 at 24 h. Item: N#Cc1ccc(CNC2CCN(c3ccc(-n4nc(C(F)(F)F)cc4C4CCCCC4)cc3)C2)cc1 (stereo not drawn)
Marked response: 42.7

Exam item: Kindly indicate its recorded CC50 at 24 h. Item: FC(F)(F)c1cc(C2CCCCC2)n(-c2ccc(NC3CCN(Cc4ccccc4)CC3)cc2)n1
Marked response: 28.6

----------
assay: in vitro; assay type: cell-based; settings: Table 1; RAW 264.7 viability reduced by 50%, MTT assay, 24 hr, 1–100 μM; read-out: LC50
observable: CC50 at 24 h (µM)
Just the number in µM, nothing appended.

Exam item: Kindly indicate its recorded CC50 at 24 h. Item: NCC(=O)Nc1ccc(-n2nc(C(F)(F)F)cc2-c2ccc3c(ccc4ccccc43)c2)cc1 [AR-12, reference compound]
Marked response: 8

----------
Reported Disc inhibition zone (diameter) is given for each of the following molecules.
tested on: E. coli (TOP10); assay: Antibiotic disc inhibition zone on Mueller-Hinton agar; assay type: cell-based, Escherichia coli; details: experiment performed twice
Just the number in mm, nothing appended.

Field: example entries. Status: answers known.
molecule	observable	unitDescriptor	obsValue
CCn1cc(C(=O)O)c(=O)c2ccc(C)nc21	Disc inhibition zone (diameter)	mm	30
CNC(C)C1CCC(N)C(OC2C(N)CC(N)C(OC3OCC(C)(O)C(NC)C3O)C2O)O1 (stereo not shown)	Disc inhibition zone (diameter)	mm	17
O=C(N[C@H](CO)[C@H](O)c1ccc([N+](=O)[O-])cc1)C(Cl)Cl	Disc inhibition zone (diameter)	mm	28
O=C(O)c1cn(C2CC2)c2cc(N3CCNCC3)c(F)cc2c1=O	Disc inhibition zone (diameter)	mm	37
C[C@H]1COc2c(N3CCN(C)CC3)c(F)cc3c(=O)c(C(=O)O)cn1c23	Disc inhibition zone (diameter)	mm	34

Exam item: Kindly indicate its recorded Disc inhibition zone (diameter). Item: NC[C@H]1O[C@H](O[C@H]2[C@H](O)[C@@H](O[C@H]3O[C@H](CO)[C@@H](O)[C@H](N)[C@H]3O)[C@H](N)C[C@@H]2N)[C@H](O)[C@@H](O)[C@@H]1O
Marked response: 20

Exam item: Kindly indicate its recorded Disc inhibition zone (diameter). Item: CN(C)[C@@H]1C(O)=C(C(N)=O)C(=O)[C@@]2(O)C(O)=C3C(=O)c4c(O)cccc4[C@@](C)(O)[C@H]3C[C@@H]12
Marked response: 24
